Tested on: OV90
ASSAY_METHOD_TEXT: Primary qHTS to identify gynecologic anti-cancer compounds using libraries of approved drugs and bioactive compounds (AID 1345084); note: nearly all actives have a fitted effect of over 55% in size; note: potency is the fitted concentration of half-maximal effect
SETTINGS: Gynecologic cancer cell panel viability, ATPlite luminescence, 48 h; series mostly up to 57.5 µM
Text: National Center for Advancing Translational Sciences [NCATS] Assay Overview: Chemotherapeutic drug responses vary from cancer to cancer and from patient to patient. […] ATPlite is a luminescence based assay reliant on the conversion of a luciferase substrate to light in the presence of ATP. As a cytotoxic compound will suppress growth and decrease the number of cells, the concentration of ATP will decrease, and less light signal will be detected in the well. […]
Inconclusive results are not listed. Activity calls are given as the source filed them. Calls come from the whole dose curve; as a rule, active = well fitted cell-killing curve with a large enough effect; inconclusive = small, poorly fitted or top-dose-only effect, or effect the other way; inactive = flat fitted curve, though single readings scatter.
MEASUREMENT_KIND: Potency

Example compounds with recorded Potency:
Reported Potency for C/C=C(\C)C(=O)O[C@@H]1[C@@H](C)[C@]2(O)C3C=C(C)C(=O)[C@@]3(O)CC(CO)=C[C@H]2C2C(C)(C)[C@@]21OC(=O)C(C)CC (stereo partly drawn) was inactive

Reported Potency for "CC(C)(C)[C@]1(O)C[C@@H]2OC(=O)C[C@@]23C(=O)O[C@@H]2OC(=O)[C@@H](O)[C@]213" was inactive

Reported Potency for "N#Cc1ccc([C@H]2CCCC[C@H]2O)cc1C(F)(F)F" was inactive

Reported Potency for "C[C@@H]1Cc2c(Cl)cc(C(=O)N[C@@H](Cc3ccccc3)C(=O)O)c(O)c2C(=O)O1" was inactive

Reported Potency for "C[N@@+]1(CC2CC2)CC[C@]23c4c5ccc(O)c4O[C@H]2C(=O)CC[C@@]3(O)[C@H]1C5" was inactive

Others:
Reported Potency for COC(=O)C12C(=O)C(C)(O)C(=O)C1(C)C(C)=CC1C34CCC(OC3=O)C(C)(C)C4CCC12C (stereo not drawn) was inactive

Reported Potency for "CC1=C[C@H]2O[C@@H]3[C@H](O)[C@@H](O)[C@](C)([C@@]2(CO)C[C@@H]1O)[C@]31CO1" was 8.91 µM (active)

Reported Potency for CCCCOC(=O)c1ccnc2cc(C(OCCN3CCCCC3)c3ccccc3Cl)sc12 (stereo not drawn) was inactive
